Measurement Notes: rMics binding
Format: in vitro ADME
Measurement Parameters: rat microsomes; read-out: rMics binding % bound (converted)
Readout Name: fraction unbound

Molecule: CN1CCN2c3ncccc3Cc3ccccc3C2C1 (stereo not shown) [Mirtazapine, reference compound]
Readout Name: fraction unbound
Observed Result: 0.79

====

fraction unbound by entry:
Measurement Notes: hPPB
Assay type: in vitro ADME
Measurement Parameters: human plasma protein binding; read-out: hPPB % bound (converted)
Readout Name: fraction unbound

Compound: CN1C[C@@H]2c3ncccc3Oc3cc(Cl)ccc3[C@@H]2C1
Readout Name: fraction unbound
Observed Result: 0.13
//
Compound: CN1CCN2c3ncccc3Cc3ccccc3C2C1 (stereo not drawn) [Mirtazapine, reference compound]
Readout Name: fraction unbound
Observed Result: 0.2
//
Compound: CN1C[C@@H]2c3ncccc3Oc3ccccc3[C@@H]2C1
Readout Name: fraction unbound
Observed Result: 0.45
